Experiment: Human HepG2 cell viability assay in 384 well format
Format: toxicity, cell-based
Set-up: dose 125 nL, time 70.5 hour; concentration not given beside the values
Conditions: HepG2 cells, read-out: Inhibition
Task for the reader: assign each of the following molecules its reported cytotoxicity at 70.5 h.
The reply should be a number in %, with the unit left off.

Sample COc1ccc(C(=O)N(C)Cc2nnc3ccccn23)cc1 — what was its cytotoxicity at 70.5 h? 10.4

// same read-out, input: CCC(NC(=O)c1cnc(N(C)C)nc1C)c1ccc(S(C)(=O)=O)cc1 (centres undefined) -8.61

// same read-out, input: CS(=O)(=O)N1CCc2ccc(=O)n(CC3CCOCC3)c2CC1 -7.42

// same read-out, input: CC(=O)N1CC(=O)N(c2cnn(C)c2)CC12CCN(Cc1cccs1)C2 (centres undefined) -9.86
